Data provenance: patent US7166744B2

System: SK-Hep-1 liver cancer cells
assayInfo: MTT proliferation assay, SK-Hep-1
Assay type: cell-based
runParameters: 48 hours
measuredMetric: pIC50
Expect pIC50 as a plain number equal to -log10 of the molar concentration.

IN: Return pIC50 (reported value) for this compound: CCCC(=O)Oc1cc(O)ccc1NC(=O)/C=C(C)/C=C/C=C(C)/C=C/C1=C(C)CCCC1(C)C [KCBG10]
OUT: 5.35

IN: Consider the compound CCCC(=O)Nc1cc(NC(=O)/C=C(C)/C=C/C=C(C)/C=C/C2=C(C)CCCC2(C)C)ccc1O [KCBG41] and give its recorded pIC50.
OUT: 6.10

----------
Test system: HepG2 liver cancer cells
assayInfo: MTT proliferation assay, HepG2
Format: cell-based
runParameters: 48 hours
measuredMetric: IC50

IN: Annotate the compound "CCCC(=O)Nc1cc(NC(=O)/C=C(C)/C=C/C=C(C)/C=C/C2=C(C)CCCC2(C)C)ccc1O" with its measured IC50.
OUT: > 100 µM

IN: Tell me measured IC50 for "CCCC(=O)Oc1cc(O)ccc1NC(=O)/C=C(C)/C=C/C=C(C)/C=C/C1=C(C)CCCC1(C)C" please.
OUT: > 100 µM

IN: Give a short answer stating reported IC50 for "CC1=C(/C=C/C(C)=C/C=C/C(C)=C/C(=O)Nc2ccc(O)cc2)C(C)(C)CCC1" .
OUT: > 100 µM

----------
Tested on: PLCPRF5 liver cancer cells
assayInfo: MTT proliferation assay, PLCPRF5
Assay type: cell-based
runParameters: Homo sapiens, PLC-PRF-5, 48 hours
pIC50: −log10 of the molar value.
measuredMetric: pIC50

IN: Please tell me the measured pIC50 for CC1=C(/C=C/C(C)=C/C=C/C(C)=C/C(=O)O)C(C)(C)CCC1 [ATRA, All-trans-retinoic acid, reference compound] ; system: PLCPRF5 liver cancer cells.
OUT: < 3.30

----------
Tested on: PLCPRF5 liver cancer cells
assayInfo: MTT proliferation assay, PLCPRF5
Format: cell-based
runParameters: 48 hours
measuredMetric: pIC50
Remember, pIC50 is on a log scale: it is -log10 of the molar concentration.

IN: Using known records, supply pIC50 for "CCCC(=O)Oc1cc(O)ccc1NC(=O)/C=C(C)/C=C/C=C(C)/C=C/C1=C(C)CCCC1(C)C"
OUT: 4.92

IN: Check the records and state pIC50 for "CC1=C(/C=C/C(C)=C/C=C/C(C)=C/C(=O)Nc2ccc(O)cc2)C(C)(C)CCC1"
OUT: 4.70

----------
System: HCT116 colon cancer cells
assayInfo: MTT proliferation assay, HCT116
Type: cell-based
runParameters: Homo sapiens, HCT-116, 48 hours
measuredMetric: pIC50
Schema: pIC50 number; meaning minus log10 of the concentration expressed in molar units.

IN: Answer with the recorded pIC50 for the compound listed here: CC1=C(/C=C/C(C)=C/C=C/C(C)=C/C(=O)O)C(C)(C)CCC1 [ATRA, All-trans-retinoic acid, reference compound]
OUT: 4.70

----------
Test system: SK-Hep-1 liver cancer cells
assayInfo: MTT proliferation assay, SK-Hep-1
Assay type: cell-based
runParameters: Homo sapiens, SK-HEP1, 48 hours
measuredMetric: IC50

IN: Given the molecule CC1=C(/C=C/C(C)=C/C=C/C(C)=C/C(=O)O)C(C)(C)CCC1 [ATRA, All-trans-retinoic acid, reference compound] , write its reported IC50.
OUT: > 500 µM
